- test.summary: chemical genetic growth profiling, strain panel (AID 1159580);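 note: tested at 20 µM; growth read once vehicle control cultures reached saturation at 30 °C; 1 = growth at the plate median or of vehicle wells; lower values mean less growth of the strain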
- test.parameters: S. cerevisiae deletion strains, growth OD, locus YIR030C, strain dcg1, hits give low values
Among all 5,500 compounds or so, about 2,000 (36%) were called active. Another 18% or so got no clear call; they are omitted. The list shows a part of the results.
normalized growth: recorded values
reported.endpoint: normalized growth

molecule | result
CC(=O)N[C@@H](Cc1c[nH]c2ccccc12)C(N)=O | 1 (inactive)
CS(=O)(=O)c1ccc([C@@H](O)[C@@H](CO)NC(=O)C(Cl)Cl)cc1 | 0.978 (inactive)
C[C@H](CCC(=O)O)[C@H]1CCC2C3C(=O)CC4CC(=O)CC[C@]4(C)C3CC(=O)[C@@]21C (some centres not stated) | 1.01 (inactive)
CC(N=C(NC#N)Nc1ccncc1)C(C)(C)C (configuration not stated) | 1.02 (inactive)
CC(C)(C)NCC(O)c1ccc(O)c(CO)c1 (configuration not stated) | 1.02 (inactive)
C[n+]1ccccc1/C=N/O | 1.01 (inactive)
O=C1NC(O)=NC1(c1ccccc1)c1ccccc1 | 1.01 (inactive)

----------
normalized growth: recorded values
- test.summary: chemical genetic growth profiling, strain panel (AID 1159580)
- test.parameters: S. cerevisiae deletion strains, growth OD, locus YJR043C, strain POL32, hits give low values
Screen size: about 5,500 compounds; about 2,000 (36%) were called active. About 18% were inconclusive and are not listed. The list shows a part of the results.

molecule | normalized growth
CC(=O)c1cc(CC=C(C)C)c(O)c(CC=C(C)C)c1 | 0.998
CCCOc1ccc2nc(NC(=O)OC)[nH]c2c1 | 0.991
O=C(O)c1cc(O)c2c(c1)[C@@H]([C@H]1c3cc(C(=O)O)cc(O)c3C(=O)c3c(O[C@H]4O[C@H](CO)[C@@H](O)[C@H](O)[C@H]4O)cccc31)c1cccc(O[C@H]3O[C@H](CO)[C@@H](O)[C@H](O)[C@H]3O)c1C2=O | 1
CSc1sc(C#N)c2c1C(O)CCC2 (configuration not stated) | 0.961
COc1cc(C/C=C/c2ccccc2)c(OC)cc1O | 1.08
O=C(NCO)c1cccnc1 | 0.983
C(=C(c1ccccc1)c1ccccc1)N1CCC1 | 1
Nc1ccc(S(=O)(=O)NC(=O)c2ccccc2)cc1 | 1.01
C[n+]1ccccc1/C=N/O | 0.995
N=C(N)N | 0.999
CCCSc1ccc2nc(NC(=O)OC)[nH]c2c1 | 0.967
O=C(O)c1ccc(S(=O)(=O)N(Cl)Cl)cc1 | 0.982

----------
- test.summary: chemical genetic growth profiling, strain panel (AID 1159580)
- test.parameters: S. cerevisiae deletion strains, growth OD, locus YDR318W, strain mcm21
Among all 5,500 compounds or so, about 2,000 (36%) were called active. Inconclusive results (about 18%) are left out. No stated cut-off is given here; in the data, active means normalized growth mostly below about 0.91 (no sharp cut-off); inconclusive means no clear call, values can overlap the other calls; inactive means mostly above about 0.92. The list shows a part of the results.
Labels: true = active, false = inactive

compound | assigned.label
OC[C@H]1O[C@@H](O[C@@H]2[C@@H](CO)O[C@](O)(CO)[C@H]2O)[C@H](O)[C@@H](O)[C@H]1O | false
NCCCCCCNS(=O)(=O)c1cccc2c(Cl)cccc12 | false
C[C@H](CCC(=O)O)[C@H]1CCC2C3C(=O)CC4CC(=O)CC[C@]4(C)C3CC(=O)[C@@]21C (stereo partly specified) | false
CC(C)(C)NCC(O)c1ccc(O)c(CO)c1 (stereo unspecified) | false
CC(CCc1ccccc1)NCC(O)c1ccc(O)c(C(N)=O)c1 (stereo unspecified) | false
CC1=CC(=O)c2ccccc2C1=O | true
C[n+]1ccccc1/C=N/O | false
CN(C)CCCN1c2ccccc2CCc2ccccc21 | false
OC[C@H]1O[C@@H](O[C@H]2[C@H](O)[C@@H](O)[C@@H](O)O[C@@H]2CO)[C@H](O)[C@@H](O)[C@@H]1O | false
CC(C)CC1NC(=O)CNC1=O (stereo unspecified) | false
CN(C)CCCN1c2ccccc2Sc2ccc(C(F)(F)F)cc21 | false
C=C(C)C1CCC(C)(O)C2CC3OC3(C)C2C1 (stereo unspecified) | false
CN(C)CCCN1c2ccccc2Sc2ccc(Cl)cc21 | false
CC(CCC(=O)O)[C@H]1CCC2C3CC[C@@H]4CC(=O)CC[C@]4(C)C3C=C[C@@]21C (stereo partly specified) | false
OC[C@H]1O[C@@](CO)(O[C@@H]2O[C@H](CO)[C@@H](O)[C@H](O)[C@H]2O)[C@@H](O[C@@H]2O[C@H](CO)[C@@H](O)[C@H](O)[C@H]2O)[C@@H]1O | false
CC(N=C(NC#N)Nc1ccncc1)C(C)(C)C (stereo unspecified) | false
COc1ccc(C2Sc3ccccc3N(CCN(C)C)C(=O)C2OC(C)=O)cc1 (stereo unspecified) | false
O=C1NC(O)=NC1(c1ccccc1)c1ccccc1 | false
CCN(CC)CCOC(=O)C1(C2CCCCC2)CCCCC1 | false
CN(C)CCCN1c2ccccc2Sc2ccccc21 | false
COc1ccc([C@@H]2CC(=O)c3c(O)cc(O[C@@H]4O[C@H](CO[C@H]5O[C@@H](C)[C@H](O)[C@@H](O)[C@H]5O)[C@@H](O)[C@H](O)[C@H]4O)cc3O2)cc1O | false

----------
- test.summary: chemical genetic growth profiling, strain panel (AID 1159580);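 note: tested at 20 µM; growth read once vehicle control cultures reached saturation at 30 °C; 1 = growth at the plate median or of vehicle wells; lower values mean less growth of the strain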
- test.parameters: S. cerevisiae deletion strains, growth OD, locus YGL240W, strain doc1
Screen size: about 5,500 compounds; about 2,000 (36%) were called active. Another 18% or so got no clear call; they are omitted. No stated cut-off is given here; in the data, active means normalized growth mostly below about 0.91 (no sharp cut-off); inconclusive means no clear call, values can overlap the other calls; inactive means mostly above about 0.92. The list shows a part of the results.
Labels: active, inactive

compound | assigned.label
CC(C)CCCC(C)C1CCC2C3=CC[C@H]4C[C@@H](O)CC[C@]4(C)C3CC[C@@]21C (some centres not stated) | inactive
CC(C)CCCC(C)C1CCC2C3CC(=O)[C@H]4C[C@@H](O)CC[C@]4(C)C3CC[C@]12C (some centres not stated) | inactive
CC(C)(C)NCC(O)c1ccc(O)c(CO)c1 (configuration not stated) | inactive
CC(C)CCCC(C)[C@H]1CCC2C3C(=O)C=C4C[C@@H](O)CC[C@]4(C)C3CC[C@@]21C (some centres not stated) | active
CC(=O)O[C@H]1CC[C@@]2(C)C(=CC(=O)C3C4CCC(C(C)CCCC(C)C)[C@@]4(C)CCC32)C1 (some centres not stated) | inactive
CC(C)CCCC(C)[C@H]1CCC2C3CC=C4C[C@@H](O)CC[C@]4(C)C3CC[C@@]21C (some centres not stated) | inactive
C/C1=C/CC(C)(C)/C=C/C/C(C)=C/CC1 | inactive

----------
- test.summary: chemical genetic growth profiling, strain panel (AID 1159580);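 note: tested at 20 µM; growth read once vehicle control cultures reached saturation at 30 °C; 1 = growth at the plate median or of vehicle wells; lower values mean less growth of the strain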
- test.parameters: S. cerevisiae deletion strains, growth OD, locus YDR502C, strain sam2, hits give low values
About 2,000 (36%) of roughly 5,500 compounds were called active. Inconclusive results (about 18%) are left out. The list shows a part of the results.
normalized growth: recorded values

compound | normalized growth
Cc1c(C)c2c(c(C)c1O)CCC(C)(CCCC(C)CCCC(C)CCCC(C)C)O2 (stereo not given) | 0.987
CC(C)CCCC(C)[C@H]1CCC2C3C(=O)C=C4C[C@@H](O)CC[C@]4(C)C3CC[C@@]21C (stereo not given in full) | 1.02
O=C(O)C1=CCCNC1 | 0.987
COc1ccc([C@@H]2CC(=O)c3c(O)cc(O[C@@H]4O[C@H](CO[C@H]5O[C@@H](C)[C@H](O)[C@@H](O)[C@H]5O)[C@@H](O)[C@H](O)[C@H]4O)cc3O2)cc1O | 0.981
CC(C)=CCCC(C)[C@@H]1CC[C@]2(C)C3=C(CC[C@@]12C)C1(C)CC[C@H](O)C(C)(C)C1CC3 (stereo not given in full) | 0.989

----------
- test.summary: chemical genetic growth profiling, strain panel (AID 1159580);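 note: tested at 20 µM; growth read once vehicle control cultures reached saturation at 30 °C; 1 = growth at the plate median or of vehicle wells; lower values mean less growth of the strain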
- test.parameters: S. cerevisiae deletion strains, growth OD, locus YKL009W, strain mrt4
In all, about 5,500 compounds went through this assay and about 2,000 (36%) were called active. About 18% were inconclusive and are not listed. No stated cut-off is given here; in the data, active means normalized growth mostly below about 0.91 (no sharp cut-off); inconclusive means no clear call, values can overlap the other calls; inactive means mostly above about 0.92. The list shows a part of the results.
Labels: active, inactive

compound | assigned.label
CCCOc1ccc2nc(NC(=O)OC)[nH]c2c1 | inactive
CCCSc1ccc2nc(NC(=O)OC)[nH]c2c1 | inactive
Cc1cc(=O)oc2cc(O)c(O)cc12 | inactive
CC(CCc1ccccc1)NCC(O)c1ccc(O)c(C(N)=O)c1 (stereo not given) | inactive
CS(=O)(=O)c1ccc([C@@H](O)[C@@H](CO)NC(=O)C(Cl)Cl)cc1 | inactive
CC(C)CCCC(C)[C@H]1CCC2C3C(=O)C=C4C[C@@H](O)CC[C@]4(C)C3CC[C@@]21C (stereo not given in full) | inactive
CN(C)C1C(=O)C(C(N)=O)=C(O)C2(O)C(=O)C3=C(O)c4c(O)ccc(Cl)c4C(C)(O)C3CC12 (stereo not given) | inactive
CC(C)CC(NC(=O)OCC1c2ccccc2-c2ccccc21)C(=O)O (stereo not given) | inactive
CC(C)c1ccc2c(c1)CCC1[C@](C)(CN)CCC[C@]21C (stereo not given in full) | active
CN(C)[C@@H]1C(=O)C(C(N)=O)=C(O)[C@@]2(O)C(=O)C3=C(O)c4c(O)ccc(Cl)c4[C@@](C)(O)[C@H]3C[C@@H]12 | inactive
